- test conditions: pH 7.5
Marks after values point to notes of the source that are not given here.
parameter measured: Log P

compound	Log P
CCOC(=O)C(C#N)=C(NC(C)C(C)C)c1cccnc1OC (stereo not drawn) [Compound 961]	3.52^[c]; 3.52^[b]
CCOC(=O)C(C#N)=C(Nc1cccc(F)c1OC)c1cccnc1Cl [Compound 1611]	3.13^[c]; 3.13^[b]
COC(=O)C(C#N)=C(Nc1ccccc1SC)c1cccnc1Cl [Compound 334]	2.82^[c]; 2.82^[b]
CC(NC(=C(C#N)C(=O)OC1CCC1)c1cccnc1Cl)c1nccs1 (racemic) [Compound 268]	2.88
COC(=O)C(C#N)=C(NC(C)CSC)c1cccnc1Cl (racemic) [Compound 576]	2.38

The reported Log P of the compound CCSCC(C)NC(=C(C#N)C(=O)OC)c1cccnc1Cl (stereo not drawn) [Compound 577] was 2.72

* * *

Task for the reader: assign each of the following compounds its reported Log P.
- test conditions: pH 2.7
Marks after values point to notes of the source that are not given here.

compound	parameter measured	result
CCOC(=O)C(C#N)=C(NC(C)C(C)C)c1cn(C)nc1CC (centres unmarked) [Compound 1205]	Log P	3.13^[a]

Okay, here is my list. What is Log P for each of these?
1. CCOC(=O)C(C#N)=C(Nc1ccc(Cl)cc1)c1sc(C)nc1C(F)(F)F [Compound 512]
2. CCOC(=O)C(C#N)=C(NC(C)C(C)C)c1c(C(F)F)nn(C)c1F (racemic) [Compound 1000]
3. CCOC(=O)C(C#N)=C(NCc1ccc(C)c(C)n1)c1cnn(C)c1Cl [Compound 1542]
4. CCOC(=O)C(C#N)=C(NC(C)c1nccs1)c1ccnc(CC(C)C)c1Cl (centres unmarked) [Compound 1384]
5. CCOC(=O)C(C#N)=C(NC(C)c1ccc(F)cc1)c1sc(C)nc1C(F)(F)F (mixture of isomers) [Compound 450]
6. C=CCOC(=O)C(C#N)=C(NC(C)c1nccs1)c1cn(C)nc1C(F)F (mixture of isomers) [Compound 305]
7. CCOC(=O)C(C#N)=C(NC1(c2ccccc2Cl)CC1)c1cn(C)nc1C(F)F [Compound 1362]

Reply |
1: 3.92^[a]; 2: 3.53^[a]; 3: 1.66^[a]; 4: 3.64^[a]; 5: 3.96^[a]; 6: 2.59^[a]; 7: 3.35^[a]
